- Tested on: MDA-MB-435
- Test Details: Cytotoxicity against human MDA-MB-435 after 48 hrs by SRB assay
- Format: functional, cell-based
- Condition Set: MDA-MB-435, 48 h
Listed next: entries and their corresponding IC50.
Enter your answer as a number in µg/mL; do not include the unit.

Compound	Experimental Endpoint	Observed Value
COC1=CC(=O)C(C)=C(C[C@H](C)O)C1=O	IC50	3.6
COC1=CC(=O)C(C)=C(CC(C)=O)C1=O	IC50	2.22

Query compound follows.
Using the record for COC1=CC(=O)C(C)=C(C[C@H](C)OC=O)C1=O [(+)-FORMYLANSERINONE B] , report its IC50. 2.9

# credit: ChEMBL document CHEMBL1146496
